target: Serine/threonine-protein kinase pim-2 (Homo sapiens); experiment: Inhibition of full-length human PIM2 using RSRHSSYPAGT as substrate assessed as residual kinase activity at 10 uM after 30 mins in presence of [gamma-33P]ATP

>  <Molecule>
O=[N+]([O-])c1cc2[nH]ncc2c2c1ncc1ccccc12

>  <Assay System>
Serine/threonine-protein kinase pim-2 (Homo sapiens)

>  <Activity, %>
8.1

$$$$
>  <Molecule>
Nc1cc2[nH]ncc2c2c1ncc1c(F)cccc12

>  <Assay System>
Serine/threonine-protein kinase pim-2 (Homo sapiens)

>  <Activity, %>
76

$$$$
>  <Molecule>
Nc1cc2[nH]ncc2c2c1ncc1ccc(Cl)cc12

>  <Assay System>
Serine/threonine-protein kinase pim-2 (Homo sapiens)

>  <Activity, %>
57

$$$$
>  <Molecule>
c1ccc2c(c1)cnc1ccc3[nH]ncc3c12

>  <Assay System>
Serine/threonine-protein kinase pim-2 (Homo sapiens)

>  <Activity, %>
38

$$$$
>  <Molecule>
O=[N+]([O-])c1cc2[nH]ncc2c2c1ncc1ccc(Cl)cc12

>  <Assay System>
Serine/threonine-protein kinase pim-2 (Homo sapiens)

>  <Activity, %>
47

$$$$
>  <Molecule>
COc1ccc2c(cnc3c(N)cc4[nH]ncc4c32)c1

>  <Assay System>
Serine/threonine-protein kinase pim-2 (Homo sapiens)

>  <Activity, %>
84

$$$$
